Tested on: antibodies in sera from SARS patients (sera 1a, 1b, 2, 6, 37, 62, London, SARS-yellow, SARS-green)
Format: binding, human
Parameters: unit not given here
Below: a set of entries, each annotated with reported Binding of serum 2 to looped/cyclic peptides of protein N of SARS-CoV Urbani.
ASSAY ENDPOINT: Binding of serum 2 to looped/cyclic peptides of protein N of SARS-CoV Urbani

RESIDUE SEQUENCE	REPORTED VALUE
YAEGSRGGSQASSRS	0.3
NSRNSTPGSSRGNSP	0.5
YRRATRRVRGGDGKM	0.2
GANKEGIVWVATEGA	0.2
SWFTALTQHGKEELR	0.2
FGMSRIGMEVTPSGT	0.4
TNSGPDDQIGYYRRA	0.5
IRQGTDYKHWPQIAQ	0.4
SGKGQQQQGQTVTKK	0.3
RPQGLPNNTASWFTA	0.5
GKEELRFPRGQGVPI	0.8
KMKELSPRWYFYYLG	0.4
LPYGANKEGIVWVAT	0.6
QHGKEELRFPRGQGV	0.5
ILLNKHIDAYKTFPP	0.5
DNNQNGGRNGARPKQ	0.4
SPRWYFYYLGTGPEA	0.5
GMEVTPSGTWLTYHG	0.4

----------
Tested on: antibodies in sera from SARS patients (sera 1a, 1b, 2, 6, 37, 62, London, SARS-yellow, SARS-green)
Assay type: binding, human
Below: a set of entries, each annotated with reported Binding of serum 1b to linear peptides of protein X3 of SARS-CoV Urbani.
ASSAY ENDPOINT: Binding of serum 1b to linear peptides of protein X3 of SARS-CoV Urbani

RESIDUE SEQUENCE	REPORTED VALUE
RIAIWNLDVIISSIV	0.3
WNLDVIISSIVRQLF	0.2
NLDVIISSIVRQLFK	0.2
QVTIAEILIIIMRTF	0.4

----------
Tested on: antibodies in sera from SARS patients (sera 1a, 1b, 2, 6, 37, 62, London, SARS-yellow, SARS-green)
Assay type: binding, human
Below: a set of entries, each annotated with reported Binding of serum 6 to looped/cyclic peptides of protein X1 of SARS-CoV Urbani.
ASSAY ENDPOINT: Binding of serum 6 to looped/cyclic peptides of protein X1 of SARS-CoV Urbani

RESIDUE SEQUENCE	REPORTED VALUE
IDGSSGVANPAMDPI	0.3
QITTDTGIENATFFI	0.5
IENATFFIFNKLVKD	0.2
NVQIHTIDGSSGVAN	0.1
TDTGIENATFFIFNK	0.5
QLESTQITTDTGIEN	0.2
VKDYVVVHGYFTEVY	0.2

----------
System: antibodies in sera from SARS patients (sera 1a, 1b, 2, 6, 37, 62, London, SARS-yellow, SARS-green)
Assay type: binding, human
ASSAY ENDPOINT: Binding of serum SARS-yellow to linear peptides of protein X2

RESIDUE SEQUENCE	REPORTED VALUE
LHKLLQTLVLKMLHS	0.3
TQSTALQELLIQQWI	0.7
KMLHSSSLTSLLKTH	0.4
IQQWIQFMMSRRRLL	0.8
VLKMLHSSSLTSLLK	0.5
VTAFQHQNSKKTTKL	0.7
MCKYTQSTALQELLI	0.7
VSQIQLSLLKVTAFQ	0.4
THITMTTVYHITVSQ	0.5
TMSLYMAISPKFTTS	0.0
QQWIQFMMSRRRLLA	0.6
LHSSSLTSLLKTHRM	0.6
LSLLKVTAFQHQNSK	0.0
QLSLLKVTAFQHQNS	0.1
LVVILRIGTQVLKTM	0.7
